- Target Or System: T1, huNav1.7α+β1-β2-β3 (human, UniProt Q15858 1-1988; Q07699 19-218; O60939 30-215; Q9NY72 23-215)
- T1 construct: 5N11S variant; also called huNav1.7-beta1-beta2-beta3; huNav1.7α+Navβ1-Navβ2-Navβ3
- Method Summary: binding FACS, CHO FlpIn cells
Assay Metric: EC50 (nM)

>>> recorded_value("F010301561 (VHH, vs 387G05: D23A, D53G) VHH: EVQLVESGGGLVQAGGSLRLSCAASGRILRIGYMRWHRQGAGKQREFVARITGDSATDYADSVKGRFTISRDNAKNTVYLQMNNLNPEDTAVYYCEALVTASVRGGSIHSGTYWGRGTLVTVSS")
2.5

a. F010301335 (VHH, vs 387G05: R50V) VHH: EVQLVESGGGLVQAGGSLRLSCDASGRILRIGYMRWHRQGAGKQREFVAVITDDSATDYADSVKGRFTISRDNAKNTVYLQMNNLNPEDTAVYYCEALVTASVRGGSIHSGTYWGRGTLVTVSS
b. F010301557 (VHH, vs 387G05: D23A, D53G, D54G) VHH: EVQLVESGGGLVQAGGSLRLSCAASGRILRIGYMRWHRQGAGKQREFVARITGGSATDYADSVKGRFTISRDNAKNTVYLQMNNLNPEDTAVYYCEALVTASVRGGSIHSGTYWGRGTLVTVSS
Hey, between a and b which has a smaller measured EC50? Reply with the label of the item you choose.
b
(b: 3.8 nM, a: 7.9 nM)
